- targetSystem: T1, ERαLBD-F-strep (PKA-responsive, non-phosphorylated) (human (from the printed UniProt entry), UniProt P03372 302-595, S305A | F591R | P592R)
- T1 construct: also called ERα-strep; ERα(PKA)-strep; source: E. coli NiCo21 (DE3), purified (Ni-NTA, SUMO cleavage, Strep-Tactin, SEC); not shown: His tag, N-terminal, cleaved; SUMO, N-terminal, cleaved; strep-tag, C-terminal, kept
- T1 sequence (looked up): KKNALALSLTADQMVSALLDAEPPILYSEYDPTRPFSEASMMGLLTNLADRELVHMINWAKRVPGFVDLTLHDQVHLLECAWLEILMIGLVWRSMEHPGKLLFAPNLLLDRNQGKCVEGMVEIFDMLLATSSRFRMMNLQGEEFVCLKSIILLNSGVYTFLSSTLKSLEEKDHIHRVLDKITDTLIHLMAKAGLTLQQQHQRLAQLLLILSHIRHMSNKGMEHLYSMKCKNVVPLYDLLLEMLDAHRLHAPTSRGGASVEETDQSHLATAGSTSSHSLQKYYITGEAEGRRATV
- experimentSummary: fluorescence polarisation; as a10 but in the presence of 100 μM E2; apparent KD
- cond: both partners purified
Where no end group is shown, it is not given here.
readoutType: pKd
A value of pKd is the negative decimal logarithm of a concentration given in moles per litre.

Q. Recorded pKd for LTERHKILHRLLQEGSPSD (also: fluorescein (FITC) label, position not given here) [fluorescein-labeled SRC-1 cofactor peptide (LXXLL motif of SRC-1/NCoA-1)] , please?
A. 6.00
